Molecular target: T1, recombinant human IL-23 (hrIL-23), produced at Centocor (human, UniProt P29460 23-328)
T1 sequence 1: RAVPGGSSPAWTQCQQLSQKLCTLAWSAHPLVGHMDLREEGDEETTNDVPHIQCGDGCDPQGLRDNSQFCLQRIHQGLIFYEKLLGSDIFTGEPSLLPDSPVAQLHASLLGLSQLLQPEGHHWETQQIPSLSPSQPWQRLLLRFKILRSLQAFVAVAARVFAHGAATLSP
T1 sequence 2: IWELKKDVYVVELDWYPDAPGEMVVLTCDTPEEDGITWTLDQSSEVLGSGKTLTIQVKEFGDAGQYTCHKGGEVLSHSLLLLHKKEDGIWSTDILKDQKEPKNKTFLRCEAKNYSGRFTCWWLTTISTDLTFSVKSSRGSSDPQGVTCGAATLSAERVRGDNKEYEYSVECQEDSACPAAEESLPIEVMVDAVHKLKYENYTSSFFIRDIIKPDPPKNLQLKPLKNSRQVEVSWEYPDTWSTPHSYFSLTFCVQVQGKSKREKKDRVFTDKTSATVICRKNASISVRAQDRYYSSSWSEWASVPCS
Assay: cell-based or functional assay
reportedEndpoint: Inhibition of IL-17 production, IC50 (µg/mL)
Express the result in µg/mL but write the number alone.

mAb MOR05063 (antibody, IgG1, V domains shown) VH: QVELVESGGGLVQPGGSLRLSCAASGFTFSSFGMSWVRQAPGKGLEWVSNISSSGSSTYYADSVKGRFTISRDNSKNTLYLQMNSLRAEDTAVYYCARYWGTPYLMQFDNWGQGTLVTVSS VL: DIALTQPASVSGSPGQSITISCTGTSSDVGGYNSVSWYQQHPGKAPKLMIYSVSSRPSGVSNRFSGSKSGNTASLTISGLQAEDEADYYCSDVFGGGTKLTVL
0.198
mAb MOR05046 (antibody, IgG1, V domains shown) VH: QVELVQSGAEVKKPGESLKISCKGSGYSFSNYWIGWVRQMPGKGLEWMGIIDPSTYSPSFQGQVTISADKSISTAYLQWSSLKASDTAMYYCARWYYKPFDVWGQGTLVTVSS VL: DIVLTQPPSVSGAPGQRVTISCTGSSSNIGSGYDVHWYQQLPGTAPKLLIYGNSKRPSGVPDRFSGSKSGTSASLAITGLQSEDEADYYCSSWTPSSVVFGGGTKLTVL
0.0428

[in] Entry under review: mAb MOR05053 (antibody, IgG1, V domains shown) VH: QVELVESGGGLVQPGGSLRLSCAASGFTFSSFGMSWVRQAPGKGLEWVSNITYYASVKGRFTISRDNSKNTLYLQMNSLRAEDTAVYYCARYWGTPYLMQFDNWGQGTLVTVSS VL: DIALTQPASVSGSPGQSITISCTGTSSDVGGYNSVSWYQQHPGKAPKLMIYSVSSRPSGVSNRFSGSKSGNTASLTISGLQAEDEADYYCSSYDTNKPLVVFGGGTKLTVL . Reported Inhibition of IL-17 production, IC50?
[out] 0.00493
